Measured LD50 at 24 h, listed per entry.
assaySummary: Toxicity in ip dosed mouse assessed as mortality after 24 hrs
Format: organism-based
reportedConditions: in vivo

>  <inputSmiles>
N#Cc1c(Nc2ccncc2)nc(SCc2nc3ccccc3[nH]2)nc1-c1ccccc1

>  <LD50 at 24 h (mg/kg)>
316

$$$$
>  <inputSmiles>
N#Cc1c(O)nc(SCc2nc3ccccc3[nH]2)nc1-c1ccccc1

>  <LD50 at 24 h (mg/kg)>
345

$$$$
>  <inputSmiles>
N#Cc1c(-c2ccccc2)nc(SCc2nc3ccccc3[nH]2)nc1N1CCN(C(=O)c2ccccc2)CC1

>  <LD50 at 24 h (mg/kg)>
327

$$$$
>  <inputSmiles>
N#Cc1c(NC(N)=S)nc(SCc2nc3ccccc3[nH]2)nc1-c1ccccc1

>  <LD50 at 24 h (mg/kg)>
327

$$$$
>  <inputSmiles>
N#Cc1c(Nc2nccs2)nc(SCc2nc3ccccc3[nH]2)nc1-c1ccccc1

>  <LD50 at 24 h (mg/kg)>
349

$$$$
>  <inputSmiles>
Cc1ccc(S(=O)(=O)N2CCN(c3nc(SCc4nc5ccccc5[nH]4)nc(-c4ccccc4)c3C#N)CC2)cc1

>  <LD50 at 24 h (mg/kg)>
345

$$$$
>  <inputSmiles>
N#Cc1c(-c2ccccc2)nc(SCc2nc3ccccc3[nH]2)nc1N1CCN(S(=O)(=O)c2ccccc2[N+](=O)[O-])CC1

>  <LD50 at 24 h (mg/kg)>
325

$$$$
>  <inputSmiles>
Cl.N=c1[nH]c(=O)[nH]c2nc(SCc3nc4ccccc4[nH]3)nc(-c3ccccc3)c12

>  <LD50 at 24 h (mg/kg)>
346

$$$$
>  <inputSmiles>
Cl.N=c1[nH]c(=S)[nH]c2nc(SCc3nc4ccccc4[nH]3)nc(-c3ccccc3)c12

>  <LD50 at 24 h (mg/kg)>
389

$$$$
>  <inputSmiles>
N#Cc1c(-c2ccccc2)nc(SCc2nc3ccccc3[nH]2)nc1N1CCNCC1

>  <LD50 at 24 h (mg/kg)>
300

$$$$
>  <inputSmiles>
N#Cc1c(NC(N)=O)nc(SCc2nc3ccccc3[nH]2)nc1-c1ccccc1

>  <LD50 at 24 h (mg/kg)>
347

$$$$
>  <inputSmiles>
N#Cc1c(-c2ccccc2)nc(SCc2nc3ccccc3[nH]2)nc1N1CCN(S(=O)(=O)c2ccccc2)CC1

>  <LD50 at 24 h (mg/kg)>
327

$$$$
>  <inputSmiles>
ClCc1nc2ccccc2[nH]1

>  <LD50 at 24 h (mg/kg)>
253

$$$$
>  <inputSmiles>
N#Cc1c(Nc2ccccn2)nc(SCc2nc3ccccc3[nH]2)nc1-c1ccccc1

>  <LD50 at 24 h (mg/kg)>
367

$$$$
>  <inputSmiles>
N#Cc1c(NN)nc(SCc2nc3ccccc3[nH]2)nc1-c1ccccc1

>  <LD50 at 24 h (mg/kg)>
344

$$$$
>  <inputSmiles>
CCNc1nc(SCc2nc3ccccc3[nH]2)nc(-c2ccccc2)c1C#N

>  <LD50 at 24 h (mg/kg)>
325

$$$$
>  <inputSmiles>
N#Cc1c(NNC(N)=S)nc(SCc2nc3ccccc3[nH]2)nc1-c1ccccc1

>  <LD50 at 24 h (mg/kg)>
345

$$$$
>  <inputSmiles>
N#Cc1c(-c2ccccc2)nc(SCc2nc3ccccc3[nH]2)nc1N1CCN(C(=O)c2ccc([N+](=O)[O-])cc2)CC1

>  <LD50 at 24 h (mg/kg)>
327

$$$$
>  <inputSmiles>
N#Cc1c(Cl)nc(SCc2nc3ccccc3[nH]2)nc1-c1ccccc1

>  <LD50 at 24 h (mg/kg)>
313

$$$$
>  <inputSmiles>
CN1CCN(c2nc(SCc3nc4ccccc4[nH]3)nc(-c3ccccc3)c2C#N)CC1

>  <LD50 at 24 h (mg/kg)>
384

$$$$
>  <inputSmiles>
CNc1nc(SCc2nc3ccccc3[nH]2)nc(-c2ccccc2)c1C#N

>  <LD50 at 24 h (mg/kg)>
302

$$$$
